assay: small-molecule microarray binders of probe aShh, primary screen, biochemical, biotinylated probe, 635/667 nm fluorescence (AID 1114); conditions: higher = more signal;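 also: probe is biotin-labelled aShh protein from a stem cell growth factor screen; measures binding of labelled protein to compounds printed on the slide; score merges feature fluorescence at 667 nm with signal-to-noise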
Lab note: compare composite z-score against 0.01. Equal or greater, write Condition met. Smaller, write Condition not met.

>>> group_label("COC(=O)C[C@H]1O[C@]2(C(=O)N(C)c3ccccc32)[C@@H](C)[C@@H]1[Si](C)(C)c1ccc(OC)cc1")
"Condition not met"
>>> group_label("O=C(N1CCCCC1)[C@@]1(CCS(=O)(=O)c2ccccc2)N=C(c2ccc(OCCCO)cc2)O[C@H]1c1ccccc1")
"Condition met"
>>> group_label("C=CCc1cccc([C@@H]2[C@@H](C)CC[C@H]3C(=O)N4[C@H](c5cccc(CC=C)c5)[C@@H](C)CC[C@H]4C(=O)N23)c1")
"Condition met"
>>> group_label("C=CCNC(=O)[C@H]1[C@@H]2C(=O)O[C@@H](c3ccccc3)[C@@H](c3ccccc3)N2[C@@H](c2ccc(O)cc2)[C@]12C(=O)Nc1ccc(C#CCNC(N)=O)cc12")
"Condition not met"
>>> group_label("C=C[C@H](OC)[C@@H](OC(=O)Nc1ccc(SC)cc1)c1ccc(OC)c(O)c1")
"Condition not met"
>>> group_label("CC(c1ccccc1)C(O)C1C=CC2C(=O)N(C)C(=O)C2N1N(c1ccccc1)c1ccccc1 (configuration not stated)")
"Condition met"
>>> group_label("C=CCC(OC(C)=O)[C@@H]1[C@@H](N(Cc2cc3ccccc3o2)C(=O)Cc2ccc(F)cc2)c2cc(OCCCO)ccc2N1C(=O)c1ccc(-c2ccccc2)cc1 (some centres not stated)")
"Condition met"

====

Examples of molecules with documented z-score follow.
assay: S. cerevisiae growth modulation with rapamycin, primary screen, strain BY4716, OD600, 96 h (AID 1091); conditions: higher = more signal, called active from +8 up or from −8 down
Calls of active or inactive are those of the source.
parameter measured: z-score

>>> result("C[N+](C)(C)CCCC[C@@H]1NC(=O)[C@H]2C[C@@H](C(=O)NCc3ccc(F)cc3)[C@@H](c3cccc(OCCO)c3)N2C1=O")
"-0.736 (inactive)"
>>> result("O=C(N1CCCCC1)[C@@]1(CCS(=O)(=O)c2ccccc2)N=C(c2ccc(OCCCO)cc2)O[C@H]1c1ccccc1")
"30.4 (active)"
>>> result("NC(=O)NCC#Cc1ccc2c(c1)[C@]1(C(=O)N2)[C@H](C(=O)N2CCCCCCC2)[C@H]2C(=O)O[C@H](c3ccccc3)[C@H](c3ccccc3)N2[C@@H]1c1ccccc1OCCO")
"1 (inactive)"

====

test: CREB reporter modulators under forskolin, primary screen, cell-based, PC12, CRE-LacZ reporter, forskolin-stimulated (AID 1146); details: luminescence, 4.5 h, higher = more signal, called active from +8 up or from −8 down;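 also: PC12 cells with 6xCRE LacZ reporter stimulated by forskolin 10 µM; beta-galactosidase reporter signal reflecting CREB driven transcription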
Decision: z-score >= -0.5 yields Yes, all other cases yield No.

>>> group_label("CC(C)N1CC=CC23O[C@@H]4/C=C\\CCCOC(=O)C4[C@H]2C(=O)N(CCO)[C@@H]3C1=O (stereo partly drawn)")
"Yes"
>>> group_label("C=CC[C@]1(C(=O)N2CCCCC2)N=C(c2ccc(OCCCO)cc2)O[C@H]1c1ccccc1N=[N+]=[N-]")
"No"
>>> group_label("O=C1O[C@H](c2ccccc2)[C@H](c2ccccc2)N2[C@H]1[C@@H](C(=O)Nc1nc3ccccc3s1)[C@]1(C(=O)Nc3ccc(C#CC4(O)CCCCCC4)cc31)[C@H]2c1ccc(O)cc1")
"Yes"
>>> group_label("C=CCc1cccc([C@H]2N[C@H](C(=O)O)CC[C@@H]2C)c1")
"No"
>>> group_label("Cc1ccc(N2C(=O)c3ccccc3[C@@H](C(=O)NCC(F)(F)F)[C@@H]2c2ccc(CO)cc2)nc1")
"Yes"
>>> group_label("CCCN1C(=O)[C@@]2(CCS(=O)(=O)c3ccccc3)N=C(c3ccc(OCCCO)cc3)O[C@H]2c2ccccc21")
"No"
>>> group_label("COc1cc(Cc2cc3c(c(CCc4ccccc4)n2)[Si](C(C)C)(C(C)C)OC3)cc(OC)c1OC")
"Yes"
>>> group_label("COc1ccc(C(O)C2C=CC3C(=O)N(C)C(=O)C3N2N2CCCCC2)cc1OCc1ccccc1 (stereo not drawn)")
"Yes"

====

target: Dihydroorotate dehydrogenase (quinone), mitochondrial (Plasmodium falciparum (isolate 3D7)); experiment: PfDHODH enzyme inhibitors, primary screen, biochemical, C-terminal His tag, absorbance 600 nm (AID 1175); settings: DCIP absorbance 600 nm, higher = more signal, called active from +8 up or from −8 down;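 also: recombinant parasite enzyme with a five histidine tag at its C terminus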
parameter measured: composite z-score

>>> recorded_number("COc1cccc([C@@H]2[C@@H](C)CC[C@H]3C(=O)N(C)[C@@H](C(C)C)C(=O)N23)c1")
0.295
>>> recorded_number("C=CCN1C(=O)[C@@]2(Cc3ccccc3)N=C(c3ccc(OCCCO)cc3)O[C@H]2c2ccccc21")
0.324
>>> recorded_number("O=C1C[C@@](C(=O)NC2CC2)(c2ccc([N+](=O)[O-])cc2)[C@@H](c2ccc(CO)cc2I)N1CC12CC3CC(CC(C3)C1)C2")
1.59
>>> recorded_number("C=CCOC(=O)[C@@H]1[C@H]2C(=O)O[C@H](c3ccccc3)[C@H](c3ccccc3)N2[C@H](c2ccc(OCCOC(=O)[C@H]3C[C@H]4C(=O)N5CCC[C@H]5C(=O)N4[C@H]3c3ccc(O)cc3)cc2)[C@@]12C(=O)Nc1ccccc12")
0.0956
>>> recorded_number("COC(=O)[C@@]1(Cc2ccccc2N=[N+]=[N-])N=C(c2ccc(OCCCO)cc2)O[C@H]1c1ccccc1CN=[N+]=[N-]")
0.648
>>> recorded_number("COC(=O)Cn1c(C(=O)N2CCCC2)cc2c1C[C@H]1CN(C(=O)c3ccccc3)[C@@](Cc3ccc(OC)cc3)(C(=O)OC)[C@@H]21")
-0.632
>>> recorded_number("C=CC[C@@]1(C(=O)NCC(O)CO)N=C(c2ccc(OCCCO)cc2)O[C@@H]1c1ccccc1CN=[N+]=[N-] (some centres not stated)")
0.592

====

test: PSAC antagonists in infected red cells, primary screen, cell-based, P. falciparum Indochina, OD700, 1 h (AID 1154); details: P. falciparum Indochina infected RBC osmotic lysis, called active from +8 up or from −8 down
Activity calls are given as the source filed them.
Labels: active, inactive

>>> group_label("CO[C@H]1COC(=O)[C@@H](C)NC(=O)CC=C[C@@H](C)[C@H](OC)COC(=O)CC=C[C@@H]1C")
"inactive"
>>> group_label("COCCOC(=O)N1C(=O)[C@@]2(c3cc(C#CCNC(N)=O)ccc31)[C@H](c1ccc(OCCO)cc1)N1[C@H](c3ccccc3)[C@H](c3ccccc3)OC(=O)[C@H]1[C@@H]2C(=O)N1CCCCCCC1")
"inactive"
>>> group_label("CN(C)CCCC[C@@H]1NC(=O)[C@@H]2C[C@H](C(=O)O)[C@H](c3ccc(O)cc3)N2C1=O")
"inactive"
>>> group_label("CCOC(=O)C[C@H]1[C@H](OC(=O)c2ccccc2-c2ccccc2)[C@@H](NC(=O)c2ccc(-c3ccccc3)cc2)c2cc(OCCCO)ccc2N1C(=O)Cc1ccc(OC)cc1")
"active"
>>> group_label("COCCOC(=O)N1C(=O)[C@@]2(c3cc(C#CCC(C(=O)OC)C(=O)OC)ccc31)[C@H](c1ccccc1OCCO)N1[C@H](c3ccccc3)[C@H](c3ccccc3)OC(=O)[C@H]1[C@@H]2C(=O)N1CCCCCCC1")
"inactive"
>>> group_label("COc1cc(CO)cc(I)c1O[C@H]1C=C(C(=O)NCCO)C[C@@H](NCCc2c[nH]c3ccccc23)[C@@H]1O")
"active"

====

test system: XIP peptide (Xip251-270); experiment: small-molecule binders of XIP peptide, primary screen, biochemical, small-molecule microarray, fluorescence 635/667 nm, 0.5 µg/mL protein (AID 1183); details: small-molecule microarray binding, fluorescence 635 nm; higher = more signal
Note to self: values exactly at 0.6 are Condition met. So composite z-score at or above 0.6 is Condition met, below is Condition not met.

>>> group_label("C=C(/C(=C/C[C@@H](OC(=O)c1ccncc1)c1ccc(CO)o1)c1cnc2ccccc2c1)C(C)C")
"Condition met"
>>> group_label("CO[C@H]1COC(=O)[C@H](C)NC(=O)CC=C[C@@H](C)[C@H](NS(=O)(=O)c2ccc(C)cc2)COC(=O)[C@@H](OCc2ccccc2)C=C[C@@H]1C")
"Condition met"
>>> group_label("CCCNC(=O)[C@@H]1c2ccccc2C(=O)N(C2CCCCC2)[C@H]1c1ccc(CO)cc1")
"Condition met"
>>> group_label("COC(=O)Cn1c(C(=O)N2CCCC2)cc2c1C[C@H]1CN(C(=O)c3ccccc3)[C@@](Cc3ccccc3)(C(=O)OC)[C@@H]21")
"Condition not met"
>>> group_label("O=C1OCCC/C=C\\[C@H]2OC34C=CCN(CCN5CCOCC5)C(=O)[C@H]3N(CCCCCO)C(=O)[C@@H]4C12 (some centres undefined)")
"Condition not met"
>>> group_label("COC(=O)C1=CC(c2ccc(CO)cc2)=CC(c2cccs2)N(Cc2cccc(OC(F)(F)F)c2)C=C1C(=O)OC (centres undefined)")
"Condition met"
>>> group_label("COc1ccc([Si](C)(C)[C@@H]2[C@@H](CC(=O)N(CCO)Cc3ccccc3)O[C@]3(C(=O)N(Cc4cccc(N5CCC5=O)c4)c4ccccc43)[C@H]2C)cc1")
"Condition met"
>>> group_label("CCOC(=O)C1=CC[C@@H](c2ccccc2)N(S(=O)(=O)c2ccc(C)cc2)[C@H]1C")
"Condition met"
>>> group_label("COCCOC(=O)N1C(=O)[C@@]2(c3cc(C#CCNC(N)=O)ccc31)[C@H](c1ccc(OCCO)cc1)N1[C@H](c3ccccc3)[C@H](c3ccccc3)OC(=O)[C@H]1[C@@H]2C(=O)Nc1nc2ccccc2s1")
"Condition not met"
>>> group_label("COc1ccc([Si](C)(C)[C@H]2[C@H](CC(=O)N3Cc4ccccc4C[C@H]3CO)O[C@@]3(C(=O)N(Cc4cccc(N5CCOC5=O)c4)c4ccccc43)[C@@H]2C)cc1")
"Condition met"
>>> group_label("O=C1c2ccccc2[C@](Cc2ccccc2I)(C(=O)O)[C@H](c2ccc(CO)cc2)N1C1CCCCC1")
"Condition met"
>>> group_label("COc1ccc([C@H]2C[C@H]3C(Br)=C[C@]2(OC)C(=O)[C@]32CO2)cc1")
"Condition not met"
>>> group_label("Cc1ccc([C@@H]2CC=C(C(=O)O)[C@H](c3ccccc3)N2S(=O)(=O)c2ccc(C)cc2)cc1")
"Condition met"
>>> group_label("COCCOC(=O)N1C(=O)[C@@]2(c3cc(C#CCNC(N)=O)ccc31)[C@H](c1ccccc1OCCO)N1[C@H](c3ccccc3)[C@H](c3ccccc3)OC(=O)[C@H]1[C@@H]2C(=O)NC[C@H](O)c1ccccc1")
"Condition met"
>>> group_label("O=C1O[C@@H](c2ccccc2)[C@@H](c2ccccc2)N2[C@@H](c3ccccc3OCCO)[C@]3(C(=O)Nc4ccc(C#CC5=CCCCC5)cc43)[C@@H](C(=O)O)[C@H]12")
"Condition not met"
>>> group_label("CC(=O)NCCCC[C@@H]1NC(=O)[C@H]2C[C@@H](C(=O)NCCCCCCN(C)C)[C@@H](c3ccc(O)cc3)N2C1=O")
"Condition met"
>>> group_label("CN1C2C=C(c3ccc(CO)cc3)C(C3C(=O)N(C(N)=O)C(=O)C32)C1c1cccs1 (centres undefined)")
"Condition met"
>>> group_label("CCC#CCN(Cc1ccccc1Br)[C@H](/C=C/c1ccccc1)[C@@H](O)Cc1ccccc1")
"Condition not met"
>>> group_label("COc1cccc([C@H]2N[C@H](C(=O)O)CC[C@@H]2C)c1")
"Condition not met"
>>> group_label("O=[N+]([O-])c1ccc(C[n+]2ccc3ccc(O)cc3c2)o1")
"Condition met"
>>> group_label("O=C(NCC(O)CO)[C@]1(Cc2ccccc2)N=C(c2ccc(OCCCO)cc2)O[C@@H]1c1ccccc1 (some centres undefined)")
"Condition met"
>>> group_label("C=CCC(OC(C)=O)[C@@H]1[C@@H](N(Cc2cc3ccccc3o2)C(=O)Cc2ccc(F)cc2)c2cc(OCCCO)ccc2N1C(=O)c1ccc(-c2ccccc2)cc1 (some centres undefined)")
"Condition not met"
>>> group_label("CC(=O)Nc1ccc([C@H]2[C@H](C)CC[C@H]3C(=O)N4[C@@H](CC[C@@H](C)[C@@H]4c4ccc(NC(C)=O)cc4)C(=O)N32)cc1")
"Condition met"
>>> group_label("C=CCC1=C[C@H]2[C@H]([C@@H]3C=C[C@]2(CC=C)C(=O)[C@]32CO2)[C@@]2(CO2)C1=O")
"Condition not met"
>>> group_label("O=C1OCC=C[C@H]2OC34C=CCN(Cc5ccccc5)C(=O)[C@H]3N(CCCCCO)C(=O)[C@@H]4[C@@H]12 (some centres undefined)")
"Condition not met"
>>> group_label("Cc1ccc(S[C@]2(C(=O)O)CC(=O)N(Cc3ccccc3)[C@@H]2c2ccc(CO)cc2)cc1")
"Condition not met"
>>> group_label("C=CCc1cccc([C@H]2N[C@H](C(=O)O)CC[C@@H]2C)c1")
"Condition met"
>>> group_label("[N-]=[N+]=NCc1ccccc1C[C@]1(C(=O)N2CCCCC2)N=C(c2ccc(OCCCO)cc2)O[C@H]1c1ccccc1CN=[N+]=[N-]")
"Condition met"
>>> group_label("COC(=O)[C@@]1(Cc2ccccc2)[C@H]2c3cc(C(=O)N4CCCC4)n(CCN4CNCC4=O)c3C[C@H]2CN1C(=O)c1ccccc1")
"Condition not met"
